Collected inhibition at 3.33333 µM values appear next to each entry.
# TARGET_OF_ASSAY: DYRK2 (Homo sapiens, UniProt Q92630)
# Construct: purchased Reaction Biology Corporation (assay service)
# Sequence (Q92630 1-601): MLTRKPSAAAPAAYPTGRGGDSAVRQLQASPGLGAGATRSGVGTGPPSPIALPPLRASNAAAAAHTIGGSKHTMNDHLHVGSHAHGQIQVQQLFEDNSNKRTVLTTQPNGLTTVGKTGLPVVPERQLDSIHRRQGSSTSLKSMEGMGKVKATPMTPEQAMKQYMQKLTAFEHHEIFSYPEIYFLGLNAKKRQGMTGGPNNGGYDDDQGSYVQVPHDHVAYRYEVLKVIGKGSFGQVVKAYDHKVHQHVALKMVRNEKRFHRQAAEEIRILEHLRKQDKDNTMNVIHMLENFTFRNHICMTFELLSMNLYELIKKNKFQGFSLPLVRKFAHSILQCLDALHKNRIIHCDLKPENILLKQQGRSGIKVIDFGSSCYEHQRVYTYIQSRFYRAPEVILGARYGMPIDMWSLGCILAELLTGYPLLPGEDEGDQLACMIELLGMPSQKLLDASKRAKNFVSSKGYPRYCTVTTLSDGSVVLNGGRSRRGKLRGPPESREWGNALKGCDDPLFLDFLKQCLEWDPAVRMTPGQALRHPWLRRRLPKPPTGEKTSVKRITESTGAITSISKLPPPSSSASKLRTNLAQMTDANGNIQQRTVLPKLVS
# TEST_DETAILS: DYRKs kinase activity assay (33P-ATP, DYRKtide substrate): DYRK2
# Format: biochemical
# EXPERIMENTAL_PARAMETERS: DYRK2 kinase; Conc. 3.33333 µM; duplicate values; read-out: % Inhibition
EXPERIMENTAL_ENDPOINT: inhibition at 3.33333 µM (%)

[
  {
    "COMPOUND": "Cl.Fc1cnc(Nc2ccc(CN3CCNCC3)cn2)nc1-c1ccc2ncsc2c1 [Compound 18]",
    "EXPERIMENTAL_ENDPOINT": "inhibition at 3.33333 µM",
    "NUMERIC_READOUT": 88.2
  },
  {
    "COMPOUND": "CC(C)N1CCN(Cc2ccc(Nc3ncc(F)c(-c4ccc5ncsc5c4)n3)nc2)CC1 [Compound 12]",
    "EXPERIMENTAL_ENDPOINT": "inhibition at 3.33333 µM",
    "NUMERIC_READOUT": 87.6
  },
  {
    "COMPOUND": "Cl.Fc1cnc(Nc2ccc(N3CCNCC3)cn2)nc1-c1ccc2ncsc2c1 [Compound 21]",
    "EXPERIMENTAL_ENDPOINT": "inhibition at 3.33333 µM",
    "NUMERIC_READOUT": 95.3
  },
  {
    "COMPOUND": "Cc1nc2ccc(-c3nc(Nc4ccc(C(=O)N5CCNCC5)cn4)ncc3F)cc2s1.Cl [Compound 24]",
    "EXPERIMENTAL_ENDPOINT": "inhibition at 3.33333 µM",
    "NUMERIC_READOUT": 95
  },
  {
    "COMPOUND": "CCN1CCN(Cc2ccc(Nc3ncc(F)c(-c4ccc5ncsc5c4)n3)nc2)CC1 [Compound 16]",
    "EXPERIMENTAL_ENDPOINT": "inhibition at 3.33333 µM",
    "NUMERIC_READOUT": 73.6
  },
  {
    "COMPOUND": "CCN1CCN(C(=O)c2ccc(Nc3nc(-c4ccc5nc(N(C)C)sc5c4)c4sccc4n3)nc2)CC1 [Compound 27]",
    "EXPERIMENTAL_ENDPOINT": "inhibition at 3.33333 µM",
    "NUMERIC_READOUT": 2.35
  },
  {
    "COMPOUND": "CCN1CCN(C(=O)c2cnc(Nc3ncc(F)c(-c4ccc5ncsc5c4)n3)nc2)CC1 [Compound 22]",
    "EXPERIMENTAL_ENDPOINT": "inhibition at 3.33333 µM",
    "NUMERIC_READOUT": 76.2
  },
  {
    "COMPOUND": "CCN1CCN(C(=O)c2ccc(Nc3ncc(F)c(-c4ccc5nc(C)sc5c4)n3)nc2)CC1 [Compound 23]",
    "EXPERIMENTAL_ENDPOINT": "inhibition at 3.33333 µM",
    "NUMERIC_READOUT": 95.8
  },
  {
    "COMPOUND": "CC(C)(C)OC(=O)N1CCN(Cc2ccc(Nc3ncc(F)c(-c4ccc5ncsc5c4)n3)nc2)CC1 [Compound 17]",
    "EXPERIMENTAL_ENDPOINT": "inhibition at 3.33333 µM",
    "NUMERIC_READOUT": 57.6
  }
]

* * *

# TARGET_OF_ASSAY: DYRK2 (Homo sapiens)
# Construct: purchased Reaction Biology Corporation (assay service)
# TEST_DETAILS: DYRKs kinase activity assay (33P-ATP, DYRKtide substrate): DYRK2
# Type: biochemical
# EXPERIMENTAL_PARAMETERS: DYRK2 kinase; Conc. 0.00457247 µM; duplicate values
Collected % Inhibition values appear next to each entry.
EXPERIMENTAL_ENDPOINT: % Inhibition (%)

[
  {
    "COMPOUND": "CCN1CCN(C(=O)c2cnc(Nc3ncc(F)c(-c4ccc5ncsc5c4)n3)nc2)CC1 [Compound 22]",
    "EXPERIMENTAL_ENDPOINT": "% Inhibition",
    "UNITS_OF_MEASURE": "%",
    "NUMERIC_READOUT": 2.13
  },
  {
    "COMPOUND": "Cc1nc2ccc(-c3nc(Nc4ccc(C(=O)N5CCNCC5)cn4)ncc3F)cc2s1.Cl [Compound 24]",
    "EXPERIMENTAL_ENDPOINT": "% Inhibition",
    "UNITS_OF_MEASURE": "%",
    "NUMERIC_READOUT": 24.52
  },
  {
    "COMPOUND": "CCN1CCN(C(=O)c2ccc(Nc3ncc(F)c(-c4ccc5nc(C)sc5c4)n3)nc2)CC1 [Compound 23]",
    "EXPERIMENTAL_ENDPOINT": "% Inhibition",
    "UNITS_OF_MEASURE": "%",
    "NUMERIC_READOUT": 32.91
  },
  {
    "COMPOUND": "Cl.Fc1cnc(Nc2ccc(N3CCNCC3)cn2)nc1-c1ccc2ncsc2c1 [Compound 21]",
    "EXPERIMENTAL_ENDPOINT": "% Inhibition",
    "UNITS_OF_MEASURE": "%",
    "NUMERIC_READOUT": 11.99
  }
]

* * *

Collected inhibition at 0.37037 µM values appear next to each entry.
# TARGET_OF_ASSAY: DYRK2 (Homo sapiens, UniProt Q92630)
# Construct: purchased Reaction Biology Corporation (assay service)
# TEST_DETAILS: DYRKs kinase activity assay (33P-ATP, DYRKtide substrate): DYRK2
# Assay type: biochemical
# EXPERIMENTAL_PARAMETERS: DYRK2 kinase; Conc. 0.37037 µM; duplicate values; read-out: % Inhibition
EXPERIMENTAL_ENDPOINT: inhibition at 0.37037 µM (%)

[
  {
    "COMPOUND": "CC(C)(C)OC(=O)N1CCN(Cc2ccc(Nc3ncc(F)c(-c4ccc5ncsc5c4)n3)nc2)CC1 [Compound 17]",
    "NUMERIC_READOUT": 36.6
  },
  {
    "COMPOUND": "CCN1CCN(Cc2ccc(Nc3ncc(F)c(-c4ccc5ncsc5c4)n3)nc2)CC1 [Compound 16]",
    "NUMERIC_READOUT": 64.2
  },
  {
    "COMPOUND": "Cl.Fc1cnc(Nc2ccc(CN3CCNCC3)cn2)nc1-c1ccc2ncsc2c1 [Compound 18]",
    "NUMERIC_READOUT": 56
  },
  {
    "COMPOUND": "CCN1CCN(C(=O)c2cnc(Nc3ncc(F)c(-c4ccc5ncsc5c4)n3)nc2)CC1 [Compound 22]",
    "NUMERIC_READOUT": 35.1
  }
]

* * *

# TARGET_OF_ASSAY: DYRK2 (Homo sapiens)
# Construct: purchased Reaction Biology Corporation (assay service)
# TEST_DETAILS: DYRKs kinase activity assay (33P-ATP, DYRKtide substrate): DYRK2
# Format: biochemical
# EXPERIMENTAL_PARAMETERS: DYRK2 kinase; Conc. 1.11111 µM; duplicate values
EXPERIMENTAL_ENDPOINT: % Inhibition (%)

[
  {
    "ITEM_SMILES": "CC(C)(C)OC(=O)N1CCN(Cc2ccc(Nc3ncc(F)c(-c4ccc5ncsc5c4)n3)nc2)CC1",
    "UNITS_OF_MEASURE": "%",
    "NUMERIC_READOUT": 48.09
  },
  {
    "ITEM_SMILES": "CCN1CCN(Cc2ccc(Nc3ncc(F)c(-c4ccc5ncsc5c4)n3)nc2)CC1",
    "UNITS_OF_MEASURE": "%",
    "NUMERIC_READOUT": 68.60
  },
  {
    "ITEM_SMILES": "CCN1CCN(Cc2ccc(Nc3ncc(F)c(-c4cnc5ccnn5c4)n3)nc2)CC1",
    "UNITS_OF_MEASURE": "%",
    "NUMERIC_READOUT": 6.04
  },
  {
    "ITEM_SMILES": "CCN1CCN(C(=O)c2cnc(Nc3ncc(F)c(-c4ccc5ncsc5c4)n3)nc2)CC1",
    "UNITS_OF_MEASURE": "%",
    "NUMERIC_READOUT": 58.80
  },
  {
    "ITEM_SMILES": "Cc1nc2ccc(-c3nc(Nc4ccc(C(=O)N5CCNCC5)cn4)ncc3F)cc2s1.Cl",
    "UNITS_OF_MEASURE": "%",
    "NUMERIC_READOUT": 90.57
  },
  {
    "ITEM_SMILES": "Cl.Fc1cnc(Nc2ccc(CN3CCNCC3)cn2)nc1-c1ccc2ncsc2c1",
    "UNITS_OF_MEASURE": "%",
    "NUMERIC_READOUT": 75.32
  },
  {
    "ITEM_SMILES": "CC(C)N1CCN(Cc2ccc(Nc3ncc(F)c(-c4ccc5ncsc5c4)n3)nc2)CC1",
    "UNITS_OF_MEASURE": "%",
    "NUMERIC_READOUT": 75.65
  },
  {
    "ITEM_SMILES": "Cl.Fc1cnc(Nc2ccc(N3CCNCC3)cn2)nc1-c1ccc2ncsc2c1",
    "UNITS_OF_MEASURE": "%",
    "NUMERIC_READOUT": 88.57
  }
]
